Measured values drawn from PubChem BioAssay for this set.

- Assay method text: hepatitis C replication reporter changes, two-sided – Huh7 cells, luciferase reporter, HCV replication inhibitor project, primary screen (AID 1109);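 note: huh7 hepatoma cells harbouring a luciferase neomycin HCV replicon reporter; luciferase luminescence as measure of HCV replicon replication; test concentration not given here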
- Run parameters: Huh7 HCV replicon luciferase reporter, 48 h; higher = more signal
Observed property: z-score
Numbers only.

Below: 3 compounds and their reported z-score.
Compound: CCOC(=O)C[C@H]1[C@H](OC(=O)c2ccccc2-c2ccccc2)[C@@H](NC(=O)c2ccc3ccccc3c2)c2cc(OCCCO)ccc2N1C(=O)c1ccccc1
Meas value: -1.27

Compound: O=C(C1N=C(c2ccc(OCCCO)cc2)N(c2ccccc2)O1)N1CCCCC1 (centres undefined)
Meas value: 0.65

Compound: Cc1ccc(S[C@]2(C(=O)O)CC(=O)N(C3CCCCC3)[C@@H]2c2ccc(CO)cc2I)cc1
Meas value: -0.298

We now examine a further compound.
(Q) Form field: reported z-score of NCCCCCNC(=O)[C@@H]1C[C@@H]2C(=O)N[C@@H](CCCCN)C(=O)N2[C@@H]1c1ccc(O)cc1
(A) -1.48
